TESTED ON: T1, recombinant human CLL-1 extracellular domain (ECD, amino acids 65-265) fused to an N-terminal Flag (human, UniProt Q5QGZ9 65-265)
T1 construct: The construct and the K244Q SNP are stated for the immunogen; they are not written as a piece; also called huCLL-1-Flag; huCLL-1
T1 chain: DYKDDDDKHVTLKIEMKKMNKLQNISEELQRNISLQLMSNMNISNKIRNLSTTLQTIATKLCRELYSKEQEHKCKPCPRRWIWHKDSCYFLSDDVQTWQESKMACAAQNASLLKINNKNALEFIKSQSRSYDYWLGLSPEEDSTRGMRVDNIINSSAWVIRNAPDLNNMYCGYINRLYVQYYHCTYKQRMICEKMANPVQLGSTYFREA
TEST METHOD NOTES: SPR (Biacore T200), IgG captured by anti-human Fc, CLL-1 as analyte
pKd: −log10 of the molar value.
# reported pKd; entries follow
READOUT KIND: pKd

- BINDER: "6E7.L4H1eD54 (antibody, V domains shown, IgG; also called h6E7D; H6E7.L4H1D54) VH: EVQLVQSGAEVKKPGASVKVSCKASGYSFTDYYMHWVRQAPGQGLEWIGRINPYDGAAFYSQNFKDRVTLTVDTSTSTAYLELSSLRSEDTAVYYCAIERGADLEGYAMDYWGQGTLVTVSS VL: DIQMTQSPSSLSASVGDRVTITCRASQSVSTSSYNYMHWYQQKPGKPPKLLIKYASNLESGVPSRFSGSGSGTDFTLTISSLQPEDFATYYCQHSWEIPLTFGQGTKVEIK"
  READOUT KIND: "pKd"
  MEASURED VALUE: 6.95
- BINDER: "21C9.L2H3E54 (antibody, V domains shown) VH: EVQLVQSGAEVKKPGASVKVSCKASGYTFTDYYLDWVRQAPGQGLEWIGRVNPYEGGTIYNQKFKGRVTLTRDTSTSTAYLELSSLRSEDTAVYYCARDHYRYDPLLDYWGQGTLVTVSS VL: DIQMTQSPSSLSASVGDRVTITCKASQDVSTAVAWFQQKPGKAPKLLIYSPSYRYTGVPSRFSGSGSGTDFTLTISSLQPEDFATYYCQQLYSTPYTFGQGTKVEIK"
  READOUT KIND: "pKd"
  MEASURED VALUE: 6.06
- BINDER: "21C9.L2H3 (antibody, V domains shown, humanized, assessed in the form of an IgG; also called humanized 21C9.L2H3; h21C9) VH: EVQLVQSGAEVKKPGASVKVSCKASGYTFTDYYLDWVRQAPGQGLEWIGRVNPYNGGTIYNQKFKGRVTLTRDTSTSTAYLELSSLRSEDTAVYYCARDHYRYDPLLDYWGQGTLVTVSS VL: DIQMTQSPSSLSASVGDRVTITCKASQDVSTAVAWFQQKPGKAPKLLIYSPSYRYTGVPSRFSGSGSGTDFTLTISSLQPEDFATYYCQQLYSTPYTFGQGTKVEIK"
  READOUT KIND: "pKd"
  MEASURED VALUE: 7.82
